Test system: Escherichia coli TOP10;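 also: peptides expressed intracellularly from a pBAD plasmid library in pooled LB shake-flask culture, induced with 0.3% L-arabinose, DNA abundance read by NGS, three biological replicates, DESeq2 with apeglm shrinkage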
Test: shrunken log2 fold change of peptide-encoding DNA abundance (4.5 h post-induction vs induction); higher = less antimicrobial activity (less host growth inhibition)
Details: time post-induction: 4.5 h; library: site-saturation at positions 5, 18, 19, 20
Binning rule for recorded shrunken log2 fold change: bottom range: < -0.1; center range: ≥ -0.1 and < 0.02; top range: ≥ 0.02

Solved cases (6 shown):
>>> group("RRIRSRPPRLPRPRPRPRKHPRP")
"top range"
>>> group("RRIRHRPPRLPRPRPRPKAYPRP")
"center range"
>>> group("RRIRNRPPRLPRPRPRPCCEPRP")
"top range"
>>> group("RRIRQRPPRLPRPRPRPMVHPRP")
"center range"
>>> group("RRIRCRPPRLPRPRPRPHNKPRP")
"bottom range"
>>> group("RRIRYRPPRLPRPRPRPPWKPRP")
"top range"

query: Sort RRIRHRPPRLPRPRPRPNGDPRP into one of the categories.
result: center range

query: Sort RRIRFRPPRLPRPRPRPLYGPRP into one of the categories.
result: bottom range

query: Sort RRIRERPPRLPRPRPRPHTLPRP into one of the categories.
result: bottom range

query: Sort RRIRNRPPRLPRPRPRPDYSPRP into one of the categories.
result: center range

query: Sort RRIRDRPPRLPRPRPRPVICPRP into one of the categories.
result: top range

query: Sort RRIRIRPPRLPRPRPRPHSCPRP into one of the categories.
result: center range

query: Sort RRIRHRPPRLPRPRPRPEKFPRP into one of the categories.
result: center range

query: Sort RRIRNRPPRLPRPRPRPSAPPRP into one of the categories.
result: center range

query: Sort RRIRSRPPRLPRPRPRPCTCPRP into one of the categories.
result: bottom range

query: Sort RRIRWRPPRLPRPRPRPYVGPRP into one of the categories.
result: bottom range

query: Sort RRIRGRPPRLPRPRPRPYMKPRP into one of the categories.
result: bottom range

query: Sort RRIRLRPPRLPRPRPRPDYNPRP into one of the categories.
result: bottom range

query: Sort RRIRQRPPRLPRPRPRPKARPRP into one of the categories.
result: top range

query: Sort RRIRKRPPRLPRPRPRPPRCPRP into one of the categories.
result: top range

query: Sort RRIRPRPPRLPRPRPRPFMWPRP into one of the categories.
result: bottom range

query: Sort RRIRARPPRLPRPRPRPADSPRP into one of the categories.
result: center range
